This listing pairs compounds with measured TGI.
System: COLO 205 colon
Assay: NCI tumour cell line growth inhibition, 48 h
Where a SMILES comes first, the peptide text is derived from it. [ ]: non-standard residue; d: D form. The star is where a group is joined. NMeF = CN[C@@H](Cc1ccccc1)C(=O)O; NMeV = CN[C@H](C(=O)O)C(C)C; Boc = CC(C)(C)OC(=O)*; OBn = c1ccc(CO*)cc1
observationType: TGI

compound	testValue
Cc1c(-c2nnc(-c3ccc(F)cc3)o2)nnn1-c1ccnc2c(C(F)(F)F)cccc12	> 100 µM
COc1cc2c(cc1OC)C1Cc3cc(OC)c(OC)cc3C(C2)O1	> 100 µM
COc1ccc2c(c1)/C(=C\c1c(Cl)n(C)c3ccccc13)C(=O)N2	4.36 µM
CC(C)[C@@H](C(=O)N1CCC[C@H]1C(=O)OCc1ccccc1)N(C)C(=O)[C@H](C(C)C)N(C)C(=O)[C@H](Cc1ccccc1)N(C)C(=O)[C@H](NC(=O)OC(C)(C)C)C(C)C (Boc-[dV][NMeF][NMeV][NMeV]P-OBn)	> 100 µM
C(=NCCCN1CCN(CCCN=Cc2cccc3ccccc23)CC1)c1cccc2ccccc12	> 100 µM
O=C1/C(=C/c2ccc(Cl)cc2)N=C(c2ccccc2)N1c1nc2c(Cl)cc(Cl)cc2s1	> 100 µM
CCOC(=O)c1c[nH]cc1-c1cn(S(=O)(=O)c2ccccc2)cc1C	42.4 µM
CNCCCNC1(c2cc3ccccc3s2)CCCCC1	3.8 µM
Cc1c(C(=O)/C=C/c2c(Cl)cccc2Cl)c(=O)n(-c2ccccc2)n1C	> 100 µM

* * *

Tested on: HOP-92 NSCLC
Test: NCI tumour cell line growth inhibition, 48 h

compound	valueQualifier	TGI (µM)
CCCC1=C(C(=O)OCC)C(c2ccccc2OC)C(C#N)=C(N)O1 (stereo not given)	>	100
O=[N+]([O-])c1ccc(N/N=C(\c2ccccc2)c2ccccn2)nc1	=	43.8
Cc1ccc(-c2nc(N)c(C#N)c3c2CCOc2c-3ccc3ccccc23)cc1	=	7.44
C=C(C)[C@@H]1CCC2=C[C@H](OC2=O)[C@@]2(C)C[C@@H]2C(=O)/C=C(/C)C(=O)[C@H]1OC(C)=O	>	93.3
COC(=O)/C(=N\NC(=S)NN)C(C(=O)OC)C(=O)C(=O)Nc1cccc(C(F)(F)F)c1 (stereo not given)	>	100

* * *

Test system: K-562 leukemia
Experiment: NCI tumour cell line growth inhibition, 48 h

molecule	TGI
CSc1nc2c(c(=O)[nH]1)N=C(c1ccc(Cl)cc1)CC(c1ccccc1)N2 (centres undefined)	44.9 µM
O=C(O)c1ccccc1-c1ccccc1C(=O)Nc1ccc2c(c1)[nH]c(=O)c1ccccc12	> 100 µM
COC(=O)C1=C(c2ccc3c(c2)OCO3)OC(c2ccc3c(c2)OCO3)C1 (centres undefined)	> 100 µM
CCOC(=O)N/N=C(\Cc1ccc([N+](=O)[O-])cc1)OCC	> 100 µM
c1ccc2sc(C3(N4CCC5(CC4)OCCO5)CCCCC3)cc2c1	> 100 µM
COc1cc(Nc2nc3cc(C(F)(F)F)ccc3nc2-c2ccccc2)cc(OC)c1OC	> 100 µM
CC1=NC(C(C)C)C(=O)O1 (centres undefined)	> 100 µM
CCC1CC(C)=CCN1S(=O)(=O)c1ccc(C)cc1 (centres undefined)	> 100 µM
O=C1C2=Cc3ccccc3OC2(O)Oc2ccc(O)cc21 (centres undefined)	74.1 µM
CC1=NN(C(=O)CC(=O)Nc2cccc(C)c2)C(=O)C1N=Nc1ccc(S(=O)(=O)c2ccc(N=NC3C(=O)N(C(=O)CC(=O)Nc4cccc(C)c4)N=C3C)cc2)cc1 (centres undefined)	> 100 µM
Cc1ccc2c(c1)C(C1Cc3cccc(C)c3C1=O)OC2=O (centres undefined)	> 100 µM
Cc1ccc(NC2=C(Cl)C(=O)N(Cc3ccccc3)C2=O)cc1Cl	25.8 µM
NC(=O)CCC(NC(=O)Cc1ccccc1)C(=O)O (centres undefined) (tested in a mixture with another compound)	> 8130 µM
CC(=O)OC1CC2C(C)(C)C(=O)C=C[C@]2(C)C2CCC3(C)C(c4ccoc4)[C@@H](O)[C@H]4O[C@]43[C@]12C (some centres undefined)	39.5 µM
S=C(c1ccc2c(c1)OCO2)N1CCN(c2cccc(Cl)c2)CC1	> 41.8 µM
O=Nc1sc(=N\O)/c(=N/O)sc1NO	> 100 µM
O=P(c1ccccc1)(c1ccccc1)c1ccc2c(c1)OCCOCCOCCOCCO2	> 100 µM
CCCC(=O)NC(C(=O)OCC)(N1CCOCC1)C(F)(F)F (centres undefined)	> 100 µM
COc1ccc2cc(Cn3cc[n+](Cc4ccc5ccccc5c4)c3)ccc2c1	16.3 µM
